Sourced from the supplement of paper PMC10065799

Recorded phosphorylation enrichment by entry
Target: EPHB1 (UniProt P54762)
Sequence (P54762 whole entry, looked up): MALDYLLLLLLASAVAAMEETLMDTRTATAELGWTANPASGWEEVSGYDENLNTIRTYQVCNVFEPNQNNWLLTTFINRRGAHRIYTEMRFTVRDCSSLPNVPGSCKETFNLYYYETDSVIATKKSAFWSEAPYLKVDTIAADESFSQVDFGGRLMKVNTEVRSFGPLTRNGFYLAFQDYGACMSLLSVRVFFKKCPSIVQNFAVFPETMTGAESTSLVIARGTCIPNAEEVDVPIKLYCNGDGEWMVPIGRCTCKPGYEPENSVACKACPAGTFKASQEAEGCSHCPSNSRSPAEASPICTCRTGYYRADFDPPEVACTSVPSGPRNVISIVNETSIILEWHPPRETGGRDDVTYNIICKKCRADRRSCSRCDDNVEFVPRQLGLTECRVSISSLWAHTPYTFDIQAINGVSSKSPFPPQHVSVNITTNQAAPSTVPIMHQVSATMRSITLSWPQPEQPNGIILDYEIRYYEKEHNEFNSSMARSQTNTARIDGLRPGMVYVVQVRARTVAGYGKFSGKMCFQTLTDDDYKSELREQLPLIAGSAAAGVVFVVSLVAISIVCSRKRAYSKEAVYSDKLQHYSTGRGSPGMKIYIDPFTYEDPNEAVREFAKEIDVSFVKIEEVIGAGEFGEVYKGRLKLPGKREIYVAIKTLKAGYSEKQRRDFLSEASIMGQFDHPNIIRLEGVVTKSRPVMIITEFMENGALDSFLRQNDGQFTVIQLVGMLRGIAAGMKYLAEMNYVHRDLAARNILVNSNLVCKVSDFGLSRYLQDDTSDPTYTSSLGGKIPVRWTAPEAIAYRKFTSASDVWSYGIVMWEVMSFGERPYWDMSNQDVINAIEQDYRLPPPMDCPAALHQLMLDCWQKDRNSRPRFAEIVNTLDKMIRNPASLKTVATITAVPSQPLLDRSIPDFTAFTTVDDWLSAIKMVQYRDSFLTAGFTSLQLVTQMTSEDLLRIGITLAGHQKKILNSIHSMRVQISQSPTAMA
Experiment: phosphorylation enrichment, bacterial display (enrichment ratio); higher = better substrate or ligand; peptides without Tyr show the background;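 further: 11-residue human phosphosite peptides and single-mutation variants displayed on the E. coli surface, counted by deep sequencing, each peptide's frequency after selection divided by its frequency in the unselected input library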;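 further: frequency after pTyr selection over input frequency; kinase dosed for 20-30% of maximal phosphorylation in three min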
# answer = number (no unit)

# SEQ, phosphorylation enrichment
data = [
    ("PADSGYPAYLG [ATP6V1A_Y374]", 1.77),
]

Give a short answer stating reported phosphorylation enrichment for EEQKKNFNAMK [SCN5A_Y1494_Y1494N_YF] .
0.381

Give a short answer stating reported phosphorylation enrichment for ESKAGYRVPRS [CLDN7_Y195] .
0.303

Give a short answer stating reported phosphorylation enrichment for RHLREYQDLLN [DES_Y388] .
0.621
